test_system: rat PTP1 (Rattus norvegicus)
Construct: a C-terminal truncation of rat PTP1 (amino acid residues 1-322); GST (N, cleaved yes); made in house; host or cells: E. coli strain TG-1 (pGEX-2T)
assay_overview: PTP1 assay, pNPP hydrolysis (rate of change in A405)
Format: biochemical
conditions_used: Conc 100 uM; pNPP hydrolysis; Table 2; read-out: PTP1 Inhib PTP1N. % Inhib
parameter_measured: inhibition at 100 µM (%)

CCCCCNC(=O)C(Cc1ccc(OC(COO)COO)cc1)NC(=O)C(Cc1ccc(OC)cc1)NC(=O)CCC(=O)O (centres unmarked) ... 98
CC(C)CC(CO)NC(=O)C(Cc1ccc(OC(COO)COO)cc1)NC(=O)CCC(=O)O (centres unmarked) ... 57
CCCCC/C=C/[C@H](Cc1ccc(OC(C(=O)O)C(=O)O)cc1)NC(=O)CCC(=O)O ... 70

a. CCCCCNC(=O)C(Cc1ccc(OC(COO)COO)cc1)NC(=O)C(Cc1ccc(C(=O)c2ccccc2)cc1)NC(=O)CCC(=O)O (centres unmarked) [drawing 139]
b. CCCCCNC(=O)C(Cc1ccc(OCCOO)c(COO)c1)NC(=O)C(Cc1ccccc1)NC(=O)OC(C)(C)C (centres unmarked) [drawing 162]
Input: Given the two records a and b , choose the one whose inhibition at 100 µM value is lower. Reply briefly: the label of your chosen item.
Output: a

---

test_system: rat PTP1 (Rattus norvegicus, UniProt P20417)
Construct: a C-terminal truncation of rat PTP1 (amino acid residues 1-322); GST (N, cleaved yes); made in house; host or cells: E. coli strain TG-1 (pGEX-2T)
Sequence (P20417 1-322): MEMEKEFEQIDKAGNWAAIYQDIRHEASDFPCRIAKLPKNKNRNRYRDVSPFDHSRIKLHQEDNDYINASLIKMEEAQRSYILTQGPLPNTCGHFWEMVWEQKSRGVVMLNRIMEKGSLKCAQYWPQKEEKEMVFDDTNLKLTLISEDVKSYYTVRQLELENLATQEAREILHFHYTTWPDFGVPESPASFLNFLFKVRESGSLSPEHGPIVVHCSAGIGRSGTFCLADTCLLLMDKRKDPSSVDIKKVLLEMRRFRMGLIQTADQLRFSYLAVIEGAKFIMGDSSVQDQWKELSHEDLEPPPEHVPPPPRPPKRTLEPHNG
assay_overview: PTP1 assay, pNPP hydrolysis (rate of change in A405)
Assay type: biochemical
conditions_used: inhibition of pNPP-hydrolysis; compound concentration 1 μM; read-out: % Inhibition
parameter_measured: inhibition at 1 µM (%)

Some solved cases for reference:
CCCCCNC(=O)[C@H](Cc1ccc(OCC(=O)O)c(C(=O)O)c1)NC(=O)c1cnc(Cl)c(Cl)c1 [Example 154-2] ... 23
COc1ccc(CCCCNC(=O)[C@H](Cc2ccc(OCC(=O)O)c(C(=O)O)c2)NC(=O)c2ccc(Cl)nc2)cc1 [Example 154-34] ... 26

a. CC(C)(C)OC(=O)N[C@@H](Cc1ccccc1)C(=O)N[C@@H](Cc1ccc(OCC(=O)O)c(C(=O)O)c1)C(=O)NCCCCc1ccccc1 [Example 157-2]
b. O=C(O)COc1ccc(C[C@H](NS(=O)(=O)/C=C/c2ccccc2)C(=O)NCCCCc2ccc(Cl)cc2)cc1C(=O)O [Example 156-7]
c. CC(C)(C)OC(=O)N[C@@H](Cc1ccccc1)C(=O)N[C@H](Cc1ccc(OCC(=O)O)c(C(=O)O)c1)C(=O)NCCCN1CCCC1=O [Example 157-12]
Input: Sort the 3 compounds by inhibition at 1 µM; largest first, smallest last. Provide your answer as the labels ordered per the instruction.
Output: a, c, b

A. O=C(O)COc1ccc(C[C@H](NC(=O)c2ccoc2)C(=O)NCCCCc2ccccc2)cc1C(=O)O [Example 154-15]
B. O=C(O)COc1ccc(C[C@H](NS(=O)(=O)c2ccc(F)cc2F)C(=O)NCCCCc2ccc(Cl)cc2)cc1C(=O)O [Example 156-1]
Input: Given the two records A and B , choose the one whose inhibition at 1 µM value is lower. Reply briefly: the label of your chosen item.
Output: B
